# tgt: Type-1 angiotensin II receptor (Oryctolagus cuniculus)
# Sequence (whole entry): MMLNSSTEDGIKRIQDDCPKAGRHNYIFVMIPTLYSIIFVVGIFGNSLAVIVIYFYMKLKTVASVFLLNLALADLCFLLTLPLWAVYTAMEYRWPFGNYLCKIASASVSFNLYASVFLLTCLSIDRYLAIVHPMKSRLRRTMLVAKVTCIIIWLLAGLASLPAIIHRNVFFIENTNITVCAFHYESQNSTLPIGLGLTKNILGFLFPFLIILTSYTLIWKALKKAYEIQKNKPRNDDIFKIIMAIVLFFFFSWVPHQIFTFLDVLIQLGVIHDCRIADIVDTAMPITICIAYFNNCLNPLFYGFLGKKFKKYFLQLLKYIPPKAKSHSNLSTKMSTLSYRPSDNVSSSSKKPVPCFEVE
# measurementNotes: Antagonist activity at angiotensin 2 type-1 receptor in Oryctolagus cuniculus (rabbit) aorta in presence of bovine serum albumin
# Set-up: unit not given here
measurementType: logIC50
Number only, no unit.

Consider the worked cases shown below.
CCCCc1nn(CC2CCCCC2)c(=O)n1Cc1ccc(-c2ccccc2-c2nn[nH]n2)cc1 :: 0.462
CCCCCc1nn(-c2ccccc2[N+](=O)[O-])c(=O)n1Cc1ccc(-c2ccccc2-c2nn[nH]n2)cc1 :: -0.0315
CCCCc1nn(-c2cccc(OC)c2)c(=O)n1Cc1ccc(-c2ccccc2-c2nn[nH]n2)cc1 :: 1.18
CCCc1nn(-c2ccccc2Cl)c(=O)n1Cc1ccc(-c2ccccc2-c2nn[nH]n2)cc1 :: 1.15
CCCCc1nn(-c2ccccc2-c2ccccc2)c(=O)n1Cc1ccc(-c2ccccc2-c2nn[nH]n2)cc1 :: 0.556
CCCCc1nn(C(C)c2ccccc2)c(=O)n1Cc1ccc(-c2ccccc2-c2nn[nH]n2)cc1 (configuration not stated) :: 0.69
CCCCc1nn(-c2c(Cl)cccc2Cl)c(=O)n1Cc1ccc(-c2ccccc2-c2nn[nH]n2)cc1 :: 0.763
CCCCc1nn(-c2ccccc2C(=O)OC)c(=O)n1Cc1ccc(-c2ccccc2-c2nn[nH]n2)cc1 :: 0.748
CCCCc1nnc(O)n1Cc1ccc(-c2ccccc2-c2nn[nH]n2)cc1 :: 1.78
CCCCCc1nn(-c2ccccc2Cl)c(=O)n1Cc1ccc(-c2ccccc2-c2nn[nH]n2)cc1 :: 0.756

stdin: Let me know recorded logIC50 for CCCCc1nn(-c2ccc(Cl)cc2)c(=O)n1Cc1ccc(-c2ccccc2-c2nn[nH]n2)cc1 , thanks.
stdout: 1.84

stdin: Let me know recorded logIC50 for CCCCc1nn(C(C(=O)OC)c2ccccc2)c(=O)n1Cc1ccc(-c2ccccc2-c2nn[nH]n2)cc1 (configuration not stated) , thanks.
stdout: 1.08

stdin: Let me know recorded logIC50 for CCCCc1nn(Cc2c(F)c(F)c(F)c(F)c2F)c(=O)n1Cc1ccc(-c2ccccc2-c2nn[nH]n2)cc1 , thanks.
stdout: 1.5

stdin: Let me know recorded logIC50 for CCCCc1nn(-c2ccccc2Cl)c(=O)n1Cc1ccc(-c2ccccc2-c2nn[nH]n2)cc1 , thanks.
stdout: 0.38

stdin: Let me know recorded logIC50 for CCCCc1nn(-c2ccc([N+](=O)[O-])cc2)c(=O)n1Cc1ccc(-c2ccccc2-c2nn[nH]n2)cc1 , thanks.
stdout: 1.9

stdin: Let me know recorded logIC50 for CCCCc1nn(CC(=O)OC)c(=O)n1Cc1ccc(-c2ccccc2-c2nn[nH]n2)cc1 , thanks.
stdout: 1.23

stdin: Let me know recorded logIC50 for CCCCc1nn(Cc2ccccc2C)c(=O)n1Cc1ccc(-c2ccccc2-c2nn[nH]n2)cc1 , thanks.
stdout: 1.04
